- System: Staphylococcus epidermidis
- assayDetails: In vitro antimicrobial activity against Staphylococcus epidermidis EPI1
- Type: functional
Each entry below lists one item and its recorded MIC value.
Note: unit µg/mL is implicit; provide only the numeric part.

- compoundStructure: "CC[C@H]1OC(=O)C[C@@H](O)[C@H](C)[C@@H](O[C@@H]2O[C@H](C)[C@@H](O)[C@H](N(C)C)[C@H]2O)[C@@H](CCN2C(=O)c3ccccc3C2=O)C[C@@H](C)C(=O)/C=C/C(C)=C/[C@@H]1CO[C@@H]1O[C@H](C)[C@@H](O)[C@@H](OC)[C@H]1OC"
  targetSystem: "Staphylococcus epidermidis"
  attributeMeasured: "MIC"
  reportedResult: 0.12
- compoundStructure: "CC[C@H]1OC(=O)C[C@@H](O)[C@H](C)[C@@H](O[C@@H]2O[C@H](C)[C@@H](O)[C@H](N(C)C)[C@H]2O)[C@@H](CCOC)C[C@@H](C)C(=O)/C=C/C(C)=C/[C@@H]1CO[C@@H]1O[C@H](C)[C@@H](O)[C@@H](OC)[C@H]1OC"
  targetSystem: "Staphylococcus epidermidis"
  attributeMeasured: "MIC"
  reportedResult: 0.5
- compoundStructure: "CC[C@H]1OC(=O)C[C@@H](O)[C@H](C)[C@@H](O[C@@H]2O[C@H](C)[C@@H](O)[C@H](N(C)C)[C@H]2O)[C@@H](CCOC(C(F)(F)F)C(F)(F)F)C[C@@H](C)C(=O)/C=C/C(C)=C/[C@@H]1CO[C@@H]1O[C@H](C)[C@@H](O)[C@@H](OC)[C@H]1OC"
  targetSystem: "Staphylococcus epidermidis"
  attributeMeasured: "MIC"
  reportedResult: 0.5
- compoundStructure: "CC[C@H]1OC(=O)C[C@@H](O)[C@H](C)[C@@H](O[C@@H]2O[C@H](C)[C@@H](O[C@H]3C[C@@](C)(O)[C@@H](O)[C@H](C)O3)[C@H](N(C)C)[C@H]2O)[C@@H](CCO)C[C@@H](C)C(=O)/C=C/C(C)=C/[C@@H]1CO[C@@H]1O[C@H](C)[C@@H](O)[C@@H](OC)[C@H]1OC"
  targetSystem: "Staphylococcus epidermidis"
  attributeMeasured: "MIC"
  reportedResult: 4
- compoundStructure: "CC[C@H]1OC(=O)C[C@@H](O)[C@H](C)[C@@H](O[C@@H]2O[C@H](C)[C@@H](O)[C@H](N(C)C)[C@H]2O)[C@@H](CCO)C[C@@H](C)C(=O)/C=C/C(C)=C/[C@@H]1CO[C@@H]1O[C@H](C)[C@@H](O)[C@@H](OC)[C@H]1OC"
  targetSystem: "Staphylococcus epidermidis"
  attributeMeasured: "MIC"
  reportedResult: 2

Now for another entry.
# MIC (compound: CC[C@H]1OC(=O)C[C@@H](O)[C@H](C)[C@@H](O[C@@H]2O[C@H](C)[C@@H](O[C@H]3C[C@@](C)(O)[C@@H](O)[C@H](C)O3)[C@H](N(C)C)[C@H]2O)[C@@H](CCOc2cccc(N(C)C)c2)C[C@@H](C)C(=O)/C=C/C(C)=C/[C@@H]1CO[C@@H]1O[C@H](C)[C@@H](O)[C@@H](OC)[C@H]1OC ) is 1
